B1: glmS ribozyme (parent)
chain: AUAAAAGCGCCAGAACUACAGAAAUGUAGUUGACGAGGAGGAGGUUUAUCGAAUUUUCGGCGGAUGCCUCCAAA

Variants of: B1
Test: self-cleavage kobs at 2500 uM GlcN6P; higher = faster cleavage; RNA array
Conditions: with glucosamine-6-phosphate
Variants at the floor of the assay were thinned out.
quantity.kind: self-cleavage kobs at 2500 uM GlcN6P

Past entries and their recorded results:
AUAAAAGCGCCAGAACUAAAGAAAUGUAGUAGACGAGGAGGAGGUUUAUCGAAUUUUCGGCGGAUGCCUCCAAA    0.00209 s⁻¹
AUAAAAGGGCCAGAUCUACAGAAAUGUAGUUGACGAGGAGGAGGUUUAUCGAAUUCUCGGCGGAUGCCUCCAAA    < 1e-05 s⁻¹
AUAAAAAAGCCAGAACUACAGAAAUGUAGUUGACGAGGAGGAGGUUUAGCGAAUUUUCGGCGGAUGCCUCCAAA    < 1e-05 s⁻¹
AUAAAAGGGCCAGAACUACAGAAAUGUAGUUGCUGAGGAGGAGGUGUAUCGAAUUUUCGGCGGACGCCUCCAAA    < 1e-05 s⁻¹
AUAAAAGCGCCGGAACUACAGAAAUGUAGUUGACGAGGAGGAGGUUUAUCGAGUUUUCGGCGGAUGCCCCCAAA    0.000297 s⁻¹
AUAAAAGCGACAGAACUACAGAAAUGUAGUUGCCGAGGAGGAGGUUUAUCGAAUUUUCGGCGGAUGCCUCCAAA    < 1e-05 s⁻¹
AUAAAAGCGCCAGAACUACAGAAAUGUAGUUGACGAGGAAGAGGUUUUUCGAAUUUUAGACGGAUGCCUCCAAA    < 1e-05 s⁻¹
AUAAAAGCGCCAGAGCUACAGAAAUGUAGUUGAAGAGGAGGAGGUUUAUCGAAUUUUCGGCGGAUGCCUCUAAA    < 1e-05 s⁻¹
AUAAAAGCGUUAAAACUACAGAAAUGUAGUUGACGAGGAGGAGGUUUAUCGAAUUUUCGGCGGAUGCCUCCAAA    < 1e-05 s⁻¹
AUAAAAGCGCCAGAACUACAGAAAUGUAGUUGACGAGGAGGGGGUUUAUCUAAUUUUCGGCGGAUGUCUCCAAA    < 1e-05 s⁻¹

Qu. For the variant shown here, AUAAAAGCUCCAGAACUACAGAAAUGUAGUUGACGAGGAGGAUGUUUAUCGAAUUUUCGGCGGAUGCCUCCAAA , give the reported self-cleavage kobs at 2500 uM GlcN6P.
Ans. < 1e-05 s⁻¹

Qu. For the variant shown here, AUAAAAGCGCCCGAACUACAGAAAUGUAGUUGACGAGGAGGAGGUUUAUCGAAUUGUCGGCGGAUGCCUCCAAA , give the reported self-cleavage kobs at 2500 uM GlcN6P.
Ans. 0.0054 s⁻¹

Qu. For the variant shown here, AUAAAAGCGCCAGAACUACAGAAAUGUAGUUGACGAGGAGGAAGUUUAUCGAGUUUUCGUCGGAUGCCUUCAAA , give the reported self-cleavage kobs at 2500 uM GlcN6P.
Ans. < 1e-05 s⁻¹

Qu. For the variant shown here, AUAAAAGCGCCAAAACUACAGAAAUGUAGUUGACGAGGAGGAGGUUUAUCGAUUUUUCGGCGGAUGCCUCCAAA , give the reported self-cleavage kobs at 2500 uM GlcN6P.
Ans. 0.000174 s⁻¹

Qu. For the variant shown here, AUAAAAGCGCCAGAACUACAGAAAUGUAGUUGACGAGGAGGAAGUUUAUCGAAUUUUCGGCGGAUUUCUCUAAA , give the reported self-cleavage kobs at 2500 uM GlcN6P.
Ans. < 1e-05 s⁻¹

Qu. For the variant shown here, AUAAAAGCGCCAGAACUACAGAAAUGUAGUUGACGAGGAGGAGGUUUAUCGAAUUUUCGGGGAAUGCCUCGAAA , give the reported self-cleavage kobs at 2500 uM GlcN6P.
Ans. 0.000255 s⁻¹

Qu. For the variant shown here, AUAAAAGCGCCAGAACUACAGAAAUGUAGUUGACGAGGAGGAGGUUUAUCGAUUUAUCGGCGGAUGCCUCCAAA , give the reported self-cleavage kobs at 2500 uM GlcN6P.
Ans. 0.00313 s⁻¹

Qu. For the variant shown here, AUAAAAGCGCCAGAACUACAGAAAUGUAGUUGACGAGGAGGAGGUUAAUCGAAUUUUGGGCGGAUGCCUCCAAA , give the reported self-cleavage kobs at 2500 uM GlcN6P.
Ans. 7.52e-05 s⁻¹

Qu. For the variant shown here, AUAAAAUCGCCAGAACUACAGAAAUGUAGUUGACGAGGAGGAGGUUUAUCGUAUUUUCGGCGGAUGCCUCCAAA , give the reported self-cleavage kobs at 2500 uM GlcN6P.
Ans. < 1e-05 s⁻¹

Qu. For the variant shown here, AUAAAAGCGACAGAACUACAGAAAUGUAGUUGACCAGGAGGAGGUUUAUCGAAUUUUCGGCGGAUGUCUCCAAA , give the reported self-cleavage kobs at 2500 uM GlcN6P.
Ans. < 1e-05 s⁻¹

Qu. For the variant shown here, AUAAAAGCGCCUGAACUACAGAAAUGUAGUUGACGAGGAGGAGGUUUAUCGAAUUUUCGGCGGAUGCCUACAAA , give the reported self-cleavage kobs at 2500 uM GlcN6P.
Ans. 0.00049 s⁻¹

Qu. For the variant shown here, AUAAAAGCGCCAGCGCUACAGAAAUGUAGUUGACGAGGAGGAGGUUUAUCGAAUUUUCGGCCGAUGACUCCAAA , give the reported self-cleavage kobs at 2500 uM GlcN6P.
Ans. < 1e-05 s⁻¹
